biological target: IDH1 (R132C) (Homo sapiens, UniProt O75874, R132C); assay: IDH enzyme assay, NADPH production or depletion measured by diaphorase/resazurin coupled detection; format: biochemical; settings: read-out: Compound IC50 (M) IDH1 (R132C)
Sequence (O75874 whole entry R132C): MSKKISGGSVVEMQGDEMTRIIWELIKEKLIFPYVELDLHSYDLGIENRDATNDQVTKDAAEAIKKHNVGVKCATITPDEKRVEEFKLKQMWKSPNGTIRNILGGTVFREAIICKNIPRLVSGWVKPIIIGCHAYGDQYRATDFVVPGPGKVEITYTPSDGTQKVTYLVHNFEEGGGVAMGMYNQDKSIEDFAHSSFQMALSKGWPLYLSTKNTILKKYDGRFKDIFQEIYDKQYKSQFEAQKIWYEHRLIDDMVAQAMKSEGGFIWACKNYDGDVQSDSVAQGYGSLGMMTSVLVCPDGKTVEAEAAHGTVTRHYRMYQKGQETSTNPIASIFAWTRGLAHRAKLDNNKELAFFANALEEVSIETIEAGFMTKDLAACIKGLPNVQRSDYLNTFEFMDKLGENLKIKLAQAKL
quantity_name: IC50 (M)
One number for each entry, in M.

Asked: Which measured IC50 value corresponds to `Cc1cccc(NC(=O)c2nc(Cc3ccccc3)n3c2CN(C(=O)c2ccc[nH]2)CC3)c1` ?
Given back: 3.1e-06

---

Provide the reported IC50 of each item.
target: IDH1 (R132H) (Homo sapiens, UniProt O75874, R132H); experiment: IDH enzyme assay, NADPH production or depletion measured by diaphorase/resazurin coupled detection; format: biochemical; conditions: read-out: Compound IC50 (M) IDH1 (R132H)
Sequence (O75874 whole entry R132H): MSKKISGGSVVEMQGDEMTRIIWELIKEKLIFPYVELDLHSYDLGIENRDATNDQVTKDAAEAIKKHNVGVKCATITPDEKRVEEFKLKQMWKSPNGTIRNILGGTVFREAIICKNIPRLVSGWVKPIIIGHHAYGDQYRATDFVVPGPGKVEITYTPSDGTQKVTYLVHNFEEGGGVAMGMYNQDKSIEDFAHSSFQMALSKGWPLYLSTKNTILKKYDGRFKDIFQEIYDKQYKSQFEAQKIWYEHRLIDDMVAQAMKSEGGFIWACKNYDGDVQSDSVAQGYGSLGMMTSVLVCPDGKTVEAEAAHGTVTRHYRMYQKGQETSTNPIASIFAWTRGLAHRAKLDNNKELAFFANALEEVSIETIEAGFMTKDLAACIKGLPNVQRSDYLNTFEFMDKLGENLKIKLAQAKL
Answers are plain numbers, in M.

sample_smiles=Cc1cccc(NC(=O)c2nc(Cc3ccccc3)n3c2CN(C(=O)c2ccc[nH]2)CC3)c1 study_system="IDH1 (R132H) (Homo sapiens, UniProt O75874, R132H)" quantity_name=IC50 endpoint_result=5.36e-07

Next up:
Asked: Which measured IC50 value corresponds to `C[C@H](O)c1cccc(NC(=O)c2nc(Cc3ccccc3)n3c2CN(C(=O)c2ccc[nH]2)CC3)c1` ?
Given back: 1.64e-06
